Entry source: patent US12065505B2

# Method: SPR (Biacore) on chip coated with BSA conjugated to COMPOUND 2
# Type: binding
# Condition Context: 37° C.; Fab over COMPOUND 2-BSA surface; apparent affinity
Readout Kind: log10 Kd (log10 of the value in nM)
Scale: decimal log of Kd, Kd in nM.

As a guide, the following entries are already answered.
INSERT INTO assay_data (molecule, endpoint_value) VALUES
  ('24H1-GQTV-Fab-LONG: antibody Fab fragment; VH SEQ ID NO: 80, VL SEQ ID NO: 98; sequence in Table 3 (antibody, V domains shown) VH: EVQLVESGGGLIQPGGSLRLSCAASGFTVSRNYMSWVRQAPGKGLEWVSFIYSGGSTYYADSVKGRFTISRDNSKNTLYLQMNSLRAEDTAVYYCARGGFGGGDYWGQGTLVTVSS VL: DIQMTQSPSSVSASVGDRVTITCRASQGISSWLAWYQHKPGKAPKLLIYAASSLQSGVPSRFSGSGSGTDFTLTISSLQPEDFATYYCQQANSFPLTFGGGTKVEIK', 0.11),
  ('26D5-GVR-Q-FT-Fab-SHORT: antibody Fab fragment; VH SEQ ID NO: 81, VL SEQ ID NO: 99; sequence in Table 3 (antibody, V domains shown) VH: EVQLVESGGGLIQPGGSLRLSCAASGFTVSRNYMSWVRQAPGKGLEWVSFIYSGGRTYYADSVKGRFTISRDNSKNTLYLQMNSLRAEDTAVYYCARGGFGGGDYWGQGTLVTVSS VL: DIQMTQSPSSVSASVGDRVTITCRASQGISSWLAWYQQKPGKAPKLLIYAASSLQSGVPSRFSGSGSGTDFTLTISSLQPEDFATYYCQQANSFPLTFGGGTKVEIK', -0.05),
  ('26D5-GVR-Q-FT-Fab-LONG: antibody Fab fragment; VH SEQ ID NO: 81, VL SEQ ID NO: 99; sequence in Table 3 (antibody, V domains shown) VH: EVQLVESGGGLIQPGGSLRLSCAASGFTVSRNYMSWVRQAPGKGLEWVSFIYSGGRTYYADSVKGRFTISRDNSKNTLYLQMNSLRAEDTAVYYCARGGFGGGDYWGQGTLVTVSS VL: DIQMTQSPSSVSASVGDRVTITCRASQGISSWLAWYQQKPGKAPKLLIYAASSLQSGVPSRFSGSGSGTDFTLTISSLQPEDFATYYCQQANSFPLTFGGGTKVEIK', 0.11),
  ('26D5-295-C08-Fab-LONG: antibody Fab fragment; VH SEQ ID NO: 62, VL SEQ ID NO: 88; sequence in Table 3 (antibody, V domains shown) VH: EVQLVESGGGLIQPGGSLRLSCAASGFQVSSNAMSWVRQAPGKGLEWVSFIYPGGRTYYADSVKGRFTISRDNSKNTLYLQMNSLRAEDTAVYYCARGGFGGGDYWGQGTLVTVSS VL: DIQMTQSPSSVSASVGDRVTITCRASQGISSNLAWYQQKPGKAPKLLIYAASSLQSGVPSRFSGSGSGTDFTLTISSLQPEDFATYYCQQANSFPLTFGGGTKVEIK', -0.52),
  ('26D5-GVR-H-Fab-LONG: antibody Fab fragment; VH SEQ ID NO: 81, VL SEQ ID NO: 98; sequence in Table 3 (antibody, V domains shown) VH: EVQLVESGGGLIQPGGSLRLSCAASGFTVSRNYMSWVRQAPGKGLEWVSFIYSGGRTYYADSVKGRFTISRDNSKNTLYLQMNSLRAEDTAVYYCARGGFGGGDYWGQGTLVTVSS VL: DIQMTQSPSSVSASVGDRVTITCRASQGISSWLAWYQHKPGKAPKLLIYAASSLQSGVPSRFSGSGSGTDFTLTISSLQPEDFATYYCQQANSFPLTFGGGTKVEIK', 0.54);

// switching to the query molecule
Read the entry 26D5-295-B08-Fab-LONG: antibody Fab fragment; VH SEQ ID NO: 60, VL SEQ ID NO: 88; sequence in Table 3 (antibody, V domains shown) VH: EVQLVESGGGLIQPGGSLRLSCAASGFTVSSNAMSWVRQAPGKGLEWVSFIYPGGRTYYADSVKGRFTISRDNSKNTLYLQMNSLRAEDTAVYYCARAGFGGGDYWGQGTLVTVSS VL: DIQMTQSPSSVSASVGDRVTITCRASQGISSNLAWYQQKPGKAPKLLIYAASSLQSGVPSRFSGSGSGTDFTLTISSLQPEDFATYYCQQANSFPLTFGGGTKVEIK and write its reported log10 Kd. -0.10
